- procedure.details: Inhibition of beta-lactamase NDM1 (unknown origin) expressed in Escherichia coli BL21(DE3) using cefotaxime/nitrocefin as substrate by measuring substrate hydrolysis at 100 uM by spectrophotometric analysis
Calls of active or inactive are those of the source. No cut-off for these calls is given here.
attribute.measured: inhibition

[[record]]
substance_smiles = "S=c1[nH]nc(-c2ccccc2)n1/N=C/c1ccccc1"
obs_value = "inactive"

[[record]]
substance_smiles = "Cc1ccccc1-c1n[nH]c(=S)n1/N=C/c1cccc(-c2cccc(C(=O)O)c2)c1"
obs_value = "inactive"

[[record]]
substance_smiles = "Cc1ccccc1-c1n[nH]c(=S)n1/N=C/c1ccc(OCc2ccccc2)cc1"
obs_value = "inactive"

[[record]]
substance_smiles = "Oc1ccc(/C=N/n2c(Cc3ccc4ccccc4c3)n[nH]c2=S)c(O)c1"
obs_value = "inactive"


Now take the following compound into account.
Request: Provide measured inhibition value, entry: S=c1[nH]nc(-c2ccccc2-c2ccccc2)n1/N=C/c1ccc(OCc2ccccc2)cc1
Response: 45%
